Molecular target: Ecdysone receptor (Nezara viridula, UniProt E5L6Y0+E5L6Y1)
Sequence (E5L6Y1 whole entry): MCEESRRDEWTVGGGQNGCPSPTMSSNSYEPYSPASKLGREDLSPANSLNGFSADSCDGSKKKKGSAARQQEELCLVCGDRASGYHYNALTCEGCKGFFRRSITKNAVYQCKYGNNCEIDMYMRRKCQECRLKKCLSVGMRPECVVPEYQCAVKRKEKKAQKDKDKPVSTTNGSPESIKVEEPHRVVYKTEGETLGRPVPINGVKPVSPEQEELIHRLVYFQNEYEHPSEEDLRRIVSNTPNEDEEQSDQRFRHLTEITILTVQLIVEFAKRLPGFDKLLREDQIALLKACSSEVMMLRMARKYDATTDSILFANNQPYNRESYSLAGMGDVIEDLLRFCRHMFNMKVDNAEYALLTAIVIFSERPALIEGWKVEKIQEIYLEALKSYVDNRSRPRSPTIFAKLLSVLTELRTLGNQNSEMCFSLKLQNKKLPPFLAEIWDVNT
Sequence (E5L6Y0 whole entry): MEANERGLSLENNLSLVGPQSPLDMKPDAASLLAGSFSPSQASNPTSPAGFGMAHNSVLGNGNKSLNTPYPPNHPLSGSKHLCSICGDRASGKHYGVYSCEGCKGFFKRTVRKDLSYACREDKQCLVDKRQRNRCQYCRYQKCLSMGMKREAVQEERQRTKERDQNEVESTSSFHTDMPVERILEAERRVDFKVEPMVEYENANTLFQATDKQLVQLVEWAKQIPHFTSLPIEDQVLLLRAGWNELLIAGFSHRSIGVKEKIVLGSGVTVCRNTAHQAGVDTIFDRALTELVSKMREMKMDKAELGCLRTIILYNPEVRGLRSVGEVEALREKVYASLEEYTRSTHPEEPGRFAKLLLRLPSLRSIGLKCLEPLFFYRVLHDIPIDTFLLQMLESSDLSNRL
Experiment: Displacement of [3H]PonA from recombinant Nezara viridula EcR11
Type: protein-complex assay
pKi: −log10 of the molar value.
Readings of pKi for the listed compounds
measured.metric: pKi

compound=C[C@H]([C@H](O)CCC(C)(C)O)[C@H]1CC[C@@]2(O)C3=CC(=O)[C@@H]4C[C@@H](O)[C@@H](O)C[C@]4(C)[C@H]3CC[C@]12C data_value=4.29
compound="CC(C)(O)CC[C@@H](O)[C@](C)(O)[C@H]1CC[C@@]2(O)C3=CC(=O)[C@@H]4C[C@@H](O)[C@@H](O)C[C@]4(C)[C@H]3CC[C@]12C [20-HYDROXYECDYSONE]" data_value=5.52
compound=CC(C)CC[C@@H](O)[C@](C)(O)[C@H]1CC[C@@]2(O)C3=CC(=O)[C@@H]4C[C@@H](O)[C@@H](O)C[C@]4(C)[C@H]3CC[C@]12C data_value=6.70

====

Readings of pIC50 for the listed compounds
Biological target: Ecdysone receptor (Drosophila melanogaster, UniProt P20153+P34021)
Sequence (P34021 whole entry): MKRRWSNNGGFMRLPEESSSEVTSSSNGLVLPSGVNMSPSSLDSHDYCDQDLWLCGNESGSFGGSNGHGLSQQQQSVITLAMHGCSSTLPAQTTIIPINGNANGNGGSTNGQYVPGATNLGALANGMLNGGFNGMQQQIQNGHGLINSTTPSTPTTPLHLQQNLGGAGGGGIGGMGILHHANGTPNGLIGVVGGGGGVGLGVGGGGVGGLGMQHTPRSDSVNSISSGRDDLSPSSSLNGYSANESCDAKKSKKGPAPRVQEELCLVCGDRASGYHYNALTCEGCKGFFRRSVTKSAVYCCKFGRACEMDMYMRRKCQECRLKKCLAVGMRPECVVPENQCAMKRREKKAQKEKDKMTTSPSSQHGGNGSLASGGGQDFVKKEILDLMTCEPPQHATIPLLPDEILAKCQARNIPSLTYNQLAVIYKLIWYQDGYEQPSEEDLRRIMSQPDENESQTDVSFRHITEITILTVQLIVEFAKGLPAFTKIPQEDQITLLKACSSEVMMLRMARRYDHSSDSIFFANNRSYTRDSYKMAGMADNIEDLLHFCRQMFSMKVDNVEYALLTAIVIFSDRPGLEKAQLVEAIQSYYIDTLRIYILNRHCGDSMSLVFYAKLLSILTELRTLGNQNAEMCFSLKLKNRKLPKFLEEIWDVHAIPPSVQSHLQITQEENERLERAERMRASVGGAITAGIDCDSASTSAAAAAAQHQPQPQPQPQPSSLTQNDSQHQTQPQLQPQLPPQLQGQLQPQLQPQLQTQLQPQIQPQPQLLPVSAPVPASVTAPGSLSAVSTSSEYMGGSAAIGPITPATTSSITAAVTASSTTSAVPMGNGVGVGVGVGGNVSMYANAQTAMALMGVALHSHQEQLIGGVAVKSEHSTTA
Sequence (P20153 whole entry): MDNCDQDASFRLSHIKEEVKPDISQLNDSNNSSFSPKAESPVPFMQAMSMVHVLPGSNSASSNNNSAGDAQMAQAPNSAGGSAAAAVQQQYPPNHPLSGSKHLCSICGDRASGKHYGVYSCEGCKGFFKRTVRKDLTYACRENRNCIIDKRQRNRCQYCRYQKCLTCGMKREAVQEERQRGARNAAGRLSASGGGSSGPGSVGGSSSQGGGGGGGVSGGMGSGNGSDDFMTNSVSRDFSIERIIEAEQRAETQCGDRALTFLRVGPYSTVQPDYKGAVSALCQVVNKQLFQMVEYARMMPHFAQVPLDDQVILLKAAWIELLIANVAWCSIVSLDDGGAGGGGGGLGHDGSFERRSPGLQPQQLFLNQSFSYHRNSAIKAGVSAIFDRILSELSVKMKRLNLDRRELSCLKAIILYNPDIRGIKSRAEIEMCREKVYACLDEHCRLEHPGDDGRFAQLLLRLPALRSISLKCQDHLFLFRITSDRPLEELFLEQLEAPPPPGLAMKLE
Assay: Binding affinity to Drosophila melanogaster EcR
pIC50: −log10 of the molar value.
measured.metric: pIC50

compound=C[C@H](C[C@@H](O)[C@](C)(O)[C@H]1CC[C@@]2(O)C3=CC(=O)[C@@H]4C[C@@H](O)[C@@H](O)C[C@]4(C)[C@H]3CC[C@]12C)C(C)(C)O measured_metric=pIC50 data_value=5.86
compound="CC(C)(O)CC[C@@H](O)[C@](C)(O)[C@H]1CC[C@@]2(O)C3=CC(=O)[C@@H]4C[C@@H](O)[C@@H](O)C[C@]4(C)[C@H]3CC[C@]12C [20-HYDROXYECDYSONE]" measured_metric=pIC50 data_value=7.34

====

Biological target: Ecdysone receptor (Lucilia cuprina, UniProt O18531+Q962I5)
Sequence (O18531 whole entry): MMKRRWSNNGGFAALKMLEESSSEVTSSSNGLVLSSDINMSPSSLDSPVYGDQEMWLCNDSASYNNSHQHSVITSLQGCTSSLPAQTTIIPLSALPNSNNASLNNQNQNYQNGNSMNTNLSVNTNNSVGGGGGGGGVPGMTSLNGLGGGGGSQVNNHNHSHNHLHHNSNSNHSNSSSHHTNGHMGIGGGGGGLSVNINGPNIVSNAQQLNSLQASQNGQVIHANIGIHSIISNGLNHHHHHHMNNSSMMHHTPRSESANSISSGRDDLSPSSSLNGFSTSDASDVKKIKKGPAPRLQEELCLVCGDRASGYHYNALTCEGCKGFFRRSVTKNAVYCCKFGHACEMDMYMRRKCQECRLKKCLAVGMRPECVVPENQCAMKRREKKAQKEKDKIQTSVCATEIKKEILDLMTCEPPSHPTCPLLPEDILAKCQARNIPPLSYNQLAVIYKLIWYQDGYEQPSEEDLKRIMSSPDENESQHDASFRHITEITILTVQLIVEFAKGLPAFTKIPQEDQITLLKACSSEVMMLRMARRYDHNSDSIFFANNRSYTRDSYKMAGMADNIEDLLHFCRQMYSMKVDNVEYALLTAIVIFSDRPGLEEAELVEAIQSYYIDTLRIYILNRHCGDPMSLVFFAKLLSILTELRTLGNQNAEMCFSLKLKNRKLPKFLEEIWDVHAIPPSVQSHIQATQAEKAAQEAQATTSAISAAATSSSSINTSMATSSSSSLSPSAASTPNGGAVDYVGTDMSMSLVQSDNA
Sequence (Q962I5 whole entry): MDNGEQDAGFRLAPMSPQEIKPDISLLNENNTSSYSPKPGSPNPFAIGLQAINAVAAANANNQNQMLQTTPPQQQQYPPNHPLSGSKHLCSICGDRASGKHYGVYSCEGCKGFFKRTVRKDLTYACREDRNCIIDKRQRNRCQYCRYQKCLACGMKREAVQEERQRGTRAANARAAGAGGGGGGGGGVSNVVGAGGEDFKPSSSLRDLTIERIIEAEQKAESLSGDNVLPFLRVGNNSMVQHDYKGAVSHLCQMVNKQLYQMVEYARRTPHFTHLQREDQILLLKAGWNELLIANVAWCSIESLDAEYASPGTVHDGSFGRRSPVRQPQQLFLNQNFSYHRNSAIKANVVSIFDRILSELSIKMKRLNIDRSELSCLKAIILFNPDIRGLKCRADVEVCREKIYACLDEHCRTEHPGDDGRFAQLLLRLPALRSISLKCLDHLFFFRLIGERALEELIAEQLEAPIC
Test: Binding affinity to Lucilia cuprina EcR
measured.metric: Ki

compound="CCc1ccc(C(=O)NN(C(=O)c2cc(C)cc(C)c2)C(C)(C)C)cc1 [TEBUFENOZIDE]" test_target="Ecdysone receptor (Lucilia cuprina, UniProt O18531+Q962I5)" data_value="158 nM"

The origin of these recorded values is ChEMBL document CHEMBL3045439.
